Biological target: Nonstructural protein 3 (Zika virus, UniProt A0A024AXB9)
Sequence (A0A024AXB9 whole entry): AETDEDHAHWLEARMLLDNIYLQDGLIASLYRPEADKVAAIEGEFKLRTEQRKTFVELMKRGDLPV
Assay: Functional biochemical assay to identify treatments for viral infectious disease that targets Zika NS2B-NS3 protease. Utilizing a direct enzyme activity measurement method, reading the fluorescence intensity is used to characterize the relative potency of inhibitors as IC50.
Parameters: species or system PRVABC59
Provide the recorded IC50 for the entries that follow.

Q) What value of measured IC50 is listed for "NCc1cccc(NC(=O)[C@H]2CCCN(C(=O)CC3CC3)C2)c1" ?
A) > 99.5 µM

Q) What value of measured IC50 is listed for "CCCCN1Cc2ccc(NS(=O)(=O)c3ccc(Cl)cc3C(=O)O)cc2C1" ?
A) > 99.5 µM

Q) What value of measured IC50 is listed for "O=C(N[C@@H](C(=O)Nc1ccncc1)c1ccc(OCc2ccccc2)cc1)OCc1ccccc1" ?
A) > 99.5 µM

Q) What value of measured IC50 is listed for "O=C(Nc1ccc2c(c1)C[C@H](O)C2)c1cc(Cl)cc2[nH]ncc12" ?
A) > 99.5 µM

Q) What value of measured IC50 is listed for O=C(Nc1ccccc1)OCc1ccccc1 [BENZYL PHENYLCARBAMATE] ?
A) > 100 µM

The values you see were collected from ChEMBL document CHEMBL5604062.
